- target: Dihydrofolate reductase (Homo sapiens)
- protocol_notes: Inhibition of human DHFR at 500 uM by UV-Vis spectrometry analysis
The source made the active and inactive calls. No cut-off for these calls is given here.
reported_endpoint: inhibition

Examples with their reported inhibition follow.
smiles: COc1cccc(-c2ccc(C(=O)O)cc2)c1
result: inactive
--
smiles: O=C(O)c1cccc(-c2ccncc2)c1
result: inactive
--
smiles: O=C(O)c1ccccc1-c1ccco1
result: inactive
--
smiles: Cc1oc(-c2ccccc2)cc1C(=O)O
result: inactive

Please supply inhibition for each of the following items, keeping them in order.
1. O=C(O)c1ccccc1-c1ccncc1
2. O=C(O)c1ccc(-c2ccccc2)cn1
3. O=C(O)c1ccc(-c2ccncc2)cc1
4. O=C(O)c1cccc(-c2ccccc2)n1
5. O=C(O)c1ccnc(-c2ccccc2)c1
6. O=C(O)c1ccc(-c2ccccc2F)o1
7. O=C(O)c1cccc(-c2cccnc2)c1
8. O=C(O)c1ccc(-c2ccc(O)cc2)cc1

Result:
["inactive", "inactive", "inactive", "inactive", "inactive", "inactive", "inactive", "inactive"]

Please supply inhibition for each of the following items, keeping them in order.
1. COc1cccc(-c2ccc(C(=O)O)o2)c1
2. O=C(O)c1ccc(-n2cccc2)cc1

Result:
["inactive", "inactive"]

Please supply inhibition for each of the following items, keeping them in order.
1. O=C(O)c1cccnc1-c1ccccc1
2. COc1ccccc1-c1ccc(C(=O)O)cc1
3. Cc1ccc(-c2ccc(C(=O)O)cc2)o1
4. O=C(O)c1ccc(-c2cnco2)cc1
5. O=C(O)c1ccc(-c2cccnc2)cc1

Result:
1. inactive
2. inactive
3. inactive
4. inactive
5. inactive
